MEASUREMENT_TARGET: human recombinant cathepsin K (Homo sapiens)
Sequence (P43235 115-329): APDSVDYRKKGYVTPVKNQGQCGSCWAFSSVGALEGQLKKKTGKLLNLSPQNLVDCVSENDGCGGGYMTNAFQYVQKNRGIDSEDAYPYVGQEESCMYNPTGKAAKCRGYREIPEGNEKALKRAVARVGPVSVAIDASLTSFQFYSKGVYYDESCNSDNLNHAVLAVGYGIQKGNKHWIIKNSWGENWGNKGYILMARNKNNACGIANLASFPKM
ASSAY_DETAILS: Determination of cathepsin K proteolytic catalytic activity (Ki)
SETTINGS: fluorogenic substrate H-D-Ala-Leu-Lys-AMC; read-out: Ki Cat. K
TEST_READOUT: Ki (nM)
Respond numerically; units are nM and should not be typed.

NC(=O)C(=O)[C@]1(NC(=O)[C@H](CC2(F)CCCC2)NC(=O)c2cccc(-n3ccnc3)c2)C[C@H](F)C1 :: 500
CC(C)(C)OC(=O)NC(CC1(F)CCCC1)C(=O)NC1(C(=O)C(N)=O)CC(F)C1 (stereo not shown) :: 440

Shifting focus to the compound that follows.
What Ki value was documented for this compound, CC1(C[C@H](NC(=O)C2CC2)C(=O)NC2(C(=O)C(N)=O)CCC2)CCCC1 ?
630
